The reported measurements were obtained from paper PMC8007111.

# experimental system: hM1 mAChR (Homo sapiens, UniProt P11229)
# Construct: expressed in transfected cells; host or cells: CHO-K1 (membrane preparation)
# Sequence (P11229 whole entry): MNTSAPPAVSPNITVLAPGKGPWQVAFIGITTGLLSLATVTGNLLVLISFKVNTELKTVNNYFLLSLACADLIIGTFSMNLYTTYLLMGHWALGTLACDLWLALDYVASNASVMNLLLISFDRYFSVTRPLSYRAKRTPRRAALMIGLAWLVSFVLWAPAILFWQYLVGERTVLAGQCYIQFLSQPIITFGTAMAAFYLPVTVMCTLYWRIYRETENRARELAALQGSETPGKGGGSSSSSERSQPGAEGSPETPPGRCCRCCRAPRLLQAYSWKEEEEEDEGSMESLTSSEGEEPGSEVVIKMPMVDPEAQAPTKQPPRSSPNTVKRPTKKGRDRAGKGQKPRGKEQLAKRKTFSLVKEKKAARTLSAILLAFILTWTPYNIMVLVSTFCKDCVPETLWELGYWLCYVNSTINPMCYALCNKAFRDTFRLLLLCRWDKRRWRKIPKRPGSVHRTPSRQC
# run description: [3H]NMS inhibition radioligand binding, hM1 in CHO-K1 cell membranes
# measurement setup: [3H]NMS, CHO-K1 cell membranes; mean ± S.E.M.; read-out: pKi hM1 (converted)

compound | unit annotation | comparison sign | Ki
C[N+](C)(C)C[C@@H]1COC(c2ccccc2)C(c2ccccc2)(c2ccccc2)O1 (stereo in doubt) [19a] | nM | = | 676
C[N+](C)(C)CC1COCC(c2ccc(Cc3ccccc3)cc2)O1 (mixture of isomers) | nM | > | 10000
C[N+](C)(C)CC1COC(c2ccccc2)(c2ccccc2)CO1 (stereo not shown) | nM | = | 36.3
C[N+](C)(C)C[C@@H]1COC(c2ccccc2)C(c2ccccc2)(c2ccccc2)O1 (stereo in doubt) [19b] | nM | = | 550

* * *

# experimental system: hM5 mAChR (Homo sapiens, UniProt P08912)
# Construct: expressed in transfected cells; host or cells: CHO-K1 (membrane preparation)
# Sequence (P08912 whole entry): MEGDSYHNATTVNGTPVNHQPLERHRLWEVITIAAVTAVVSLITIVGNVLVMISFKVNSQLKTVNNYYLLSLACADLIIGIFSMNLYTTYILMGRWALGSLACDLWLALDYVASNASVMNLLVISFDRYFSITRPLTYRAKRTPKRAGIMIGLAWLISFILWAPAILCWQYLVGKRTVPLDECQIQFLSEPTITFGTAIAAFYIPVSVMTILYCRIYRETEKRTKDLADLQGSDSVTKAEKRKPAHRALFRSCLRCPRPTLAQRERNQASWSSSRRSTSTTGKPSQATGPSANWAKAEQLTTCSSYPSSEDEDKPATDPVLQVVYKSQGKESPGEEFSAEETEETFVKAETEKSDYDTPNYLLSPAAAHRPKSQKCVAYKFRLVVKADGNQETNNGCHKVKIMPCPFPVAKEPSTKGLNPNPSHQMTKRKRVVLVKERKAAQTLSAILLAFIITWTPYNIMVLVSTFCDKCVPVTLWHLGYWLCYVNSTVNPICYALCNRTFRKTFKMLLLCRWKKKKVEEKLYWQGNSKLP
# run description: [3H]NMS inhibition radioligand binding, hM5 in CHO-K1 cell membranes
# measurement setup: [3H]NMS, CHO-K1 cell membranes; mean ± S.E.M.; read-out: pKi hM5 (converted)
measured attribute: Ki (nM)

compound | measured attribute | measurement
C[N+](C)(C)C[C@@H]1COC(c2ccccc2)C(c2ccccc2)(c2ccccc2)O1 (stereo in doubt) [19a] | Ki | 3980
C[N+](C)(C)CC1COC(c2ccccc2)(c2ccccc2)CO1 (stereo not shown) [compound 10] | Ki | 158
C[N+](C)(C)CC1COCC(c2ccc(Cc3ccccc3)cc2)O1 (mixture of isomers) [5a/b] | Ki | 7410
C[N+](C)(C)C[C@@H]1COC(c2ccccc2)C(c2ccccc2)(c2ccccc2)O1 (stereo in doubt) [19b] | Ki | 1450

* * *

Below, each entry is listed alongside its reported Ki.
# experimental system: hM2 mAChR (Homo sapiens, UniProt P08172)
# Construct: expressed in transfected cells; host or cells: CHO-K1 (membrane preparation)
# Sequence (P08172 whole entry): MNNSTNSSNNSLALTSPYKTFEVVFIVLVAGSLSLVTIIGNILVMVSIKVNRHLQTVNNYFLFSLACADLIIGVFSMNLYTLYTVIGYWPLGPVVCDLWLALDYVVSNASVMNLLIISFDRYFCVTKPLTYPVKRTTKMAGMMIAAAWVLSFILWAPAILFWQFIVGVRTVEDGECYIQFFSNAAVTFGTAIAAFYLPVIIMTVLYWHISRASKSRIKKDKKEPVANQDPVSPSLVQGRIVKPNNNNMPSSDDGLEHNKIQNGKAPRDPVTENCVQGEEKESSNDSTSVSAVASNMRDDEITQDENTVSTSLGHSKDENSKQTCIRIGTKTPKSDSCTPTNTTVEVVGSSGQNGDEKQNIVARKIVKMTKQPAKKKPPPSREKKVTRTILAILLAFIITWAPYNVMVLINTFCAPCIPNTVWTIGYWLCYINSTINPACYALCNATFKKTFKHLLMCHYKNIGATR
# run description: [3H]NMS inhibition radioligand binding, hM2 in CHO-K1 cell membranes
# measurement setup: [3H]NMS, CHO-K1 cell membranes; mean ± S.E.M.; read-out: pKi hM2 (converted)
measured attribute: Ki (µM)

molecule | measurement
C[N+](C)(C)CC1COC(c2ccccc2)(c2ccccc2)CO1 (stereo not shown) [compound 10] | 0.178
C[N+](C)(C)CC1COCC(c2ccc(Cc3ccccc3)cc2)O1 (mixture of isomers) [5a/b] | 4.9
C[N+](C)(C)C[C@@H]1COC(c2ccccc2)C(c2ccccc2)(c2ccccc2)O1 (stereo in doubt) [19a] | 4.37
C[N+](C)(C)C[C@@H]1COC(c2ccccc2)C(c2ccccc2)(c2ccccc2)O1 (stereo in doubt) [19b] | 2.14

* * *

# experimental system: hM2 mAChR (Homo sapiens, UniProt P08172)
# Construct: expressed in transfected cells; host or cells: CHO-K1 (membrane preparation)
# run description: [3H]NMS inhibition radioligand binding, hM2 in CHO-K1 cell membranes
# measurement setup: [3H]NMS, CHO-K1 cell membranes; mean ± S.E.M.
Below, each entry is listed alongside its reported pKi hM2.

compound | comparison sign | pKi hM2
C[N+](C)(C)C[C@@H]1COC[C@H](c2ccc(-c3ccccc3)cc2)O1.[I-] (relative stereo) | = | 5.06
CN(C)C[C@H]1COC[C@@](c2ccccc2)(C2CCCCC2)O1 [(2S,6S)-(−)-33b] | = | 8.10
C[N+](C)(C)C[C@@H]1CO[C@@H](c2ccccc2)[C@H](c2ccccc2)O1.[I-] (relative stereo) [18a] | = | 5.72
C[N+](C)(C)C[C@@H]1CO[C@H](c2ccccc2)[C@@H](c2ccccc2)O1.[I-] (relative stereo) [18b] | = | 5.65
C[N+](C)(C)C[C@@H]1COC[C@@H](c2ccc(Sc3ccccc3)cc2)O1.[I-] (relative stereo) | = | 6.71
C[N+](C)(C)C[C@@H]1CO[C@@H](c2ccc(-c3ccccc3)cc2)CO1.[I-] (relative stereo) [13b] | = | 5.49
C[N+](C)(C)C[C@@H]1COC[C@H](c2ccc(S(=O)(=O)c3ccccc3)cc2)O1.[I-] (relative stereo) | = | 5.13
C[N+](C)(C)C[C@@H]1CO[C@@](c2ccccc2)(C2CCCCC2)CO1.[I-] (relative stereo) [11a] | = | 7.26
C[N+](C)(C)C[C@@H]1COC[C@@H](c2ccc(S(=O)(=O)c3ccccc3)cc2)O1.[I-] (relative stereo) | = | 6.70
C[N+](C)(C)C[C@@H]1COC[C@](c2ccccc2)(C2CCCCC2)O1 [(2R,6R)-(+)-3b] | = | 7.86
C[N+](C)(C)C[C@@H]1CO[C@H](c2ccc(-c3ccccc3)cc2)CO1.[I-] (relative stereo) [13a] | < | 5
C[N+](C)(C)C[C@@H]1CO[C@H](c2ccc([S+]([O-])c3ccccc3)cc2)CO1.[I-] (relative stereo) [16a] | = | 5.52
C[N+](C)(C)C[C@@H]1CO[C@H](c2ccc(S(=O)(=O)c3ccccc3)cc2)CO1.[I-] (relative stereo) [17a] | = | 6.39
CN(C)C[C@@H]1COC[C@](c2ccccc2)(C2CCCCC2)O1 (relative stereo) [33b] | = | 7.88
C[N+](C)(C)C[C@@H]1CO[C@H](c2ccccc2)CO1.[I-] (relative stereo) | = | 5.06

* * *

# experimental system: hM3 mAChR (Homo sapiens)
# Construct: expressed in transfected cells; host or cells: CHO-K1 (membrane preparation)
# Sequence (P20309 whole entry): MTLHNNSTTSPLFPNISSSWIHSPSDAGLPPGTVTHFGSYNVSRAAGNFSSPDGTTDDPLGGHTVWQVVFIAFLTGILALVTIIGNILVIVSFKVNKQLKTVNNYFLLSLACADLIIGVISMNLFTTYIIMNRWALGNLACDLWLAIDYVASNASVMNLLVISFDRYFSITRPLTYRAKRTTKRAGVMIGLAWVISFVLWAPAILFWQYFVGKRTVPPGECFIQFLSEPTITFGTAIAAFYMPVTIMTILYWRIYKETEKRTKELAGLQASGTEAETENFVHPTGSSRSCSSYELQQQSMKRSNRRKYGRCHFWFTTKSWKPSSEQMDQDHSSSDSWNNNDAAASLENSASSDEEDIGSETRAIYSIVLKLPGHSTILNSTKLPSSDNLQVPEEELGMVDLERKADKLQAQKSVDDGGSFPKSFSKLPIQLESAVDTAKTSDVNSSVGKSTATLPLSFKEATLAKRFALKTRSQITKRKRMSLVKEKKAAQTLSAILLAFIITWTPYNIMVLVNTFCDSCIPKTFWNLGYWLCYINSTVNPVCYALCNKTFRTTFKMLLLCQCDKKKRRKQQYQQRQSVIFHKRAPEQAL
# run description: [3H]NMS inhibition radioligand binding, hM3 in CHO-K1 cell membranes
# measurement setup: [3H]NMS, CHO-K1 cell membranes; mean ± S.E.M.
Below, each entry is listed alongside its reported pKi hM3.

molecule | comparison sign | pKi hM3
C[N+](C)(C)C[C@@H]1COC[C@@](c2ccccc2)(C2CCCCC2)O1.[I-] (relative stereo) [3a] | = | 7.84
C[N+](C)(C)C[C@@H]1CO[C@H](c2ccc([S+]([O-])c3ccccc3)cc2)CO1.[I-] (relative stereo) [16a] | < | 5
C[N+](C)(C)C[C@@H]1CO[C@@H](c2ccccc2)[C@H](c2ccccc2)O1.[I-] (relative stereo) [18a] | = | 5.33
CN(C)C[C@@H]1COC[C@](c2ccccc2)(C2CCCCC2)O1 (relative stereo) [33b] | = | 8.72
C[N+](C)(C)C[C@@H]1COC[C@@H](c2ccc([S+]([O-])c3ccccc3)cc2)O1.[I-] (relative stereo) [7b] | = | 5.88
C[N+](C)(C)C[C@@H]1CO[C@H](c2ccc(Cc3ccccc3)cc2)CO1.[I-] (relative stereo) [14a] | = | 5.65
C[N+](C)(C)C[C@@H]1CO[C@@H](c2ccc(-c3ccccc3)cc2)CO1.[I-] (relative stereo) [13b] | < | 5
C[N+](C)(C)C[C@H]1COC[C@@](c2ccccc2)(C2CCCCC2)O1.[I-] [(2S,6S)-(−)-3b] | = | 9.05

* * *

Below, each entry is listed alongside its reported pKi hM4.
# experimental system: hM4 mAChR (Homo sapiens, UniProt P08173)
# Construct: expressed in transfected cells; host or cells: CHO-K1 (membrane preparation)
# Sequence (P08173 whole entry): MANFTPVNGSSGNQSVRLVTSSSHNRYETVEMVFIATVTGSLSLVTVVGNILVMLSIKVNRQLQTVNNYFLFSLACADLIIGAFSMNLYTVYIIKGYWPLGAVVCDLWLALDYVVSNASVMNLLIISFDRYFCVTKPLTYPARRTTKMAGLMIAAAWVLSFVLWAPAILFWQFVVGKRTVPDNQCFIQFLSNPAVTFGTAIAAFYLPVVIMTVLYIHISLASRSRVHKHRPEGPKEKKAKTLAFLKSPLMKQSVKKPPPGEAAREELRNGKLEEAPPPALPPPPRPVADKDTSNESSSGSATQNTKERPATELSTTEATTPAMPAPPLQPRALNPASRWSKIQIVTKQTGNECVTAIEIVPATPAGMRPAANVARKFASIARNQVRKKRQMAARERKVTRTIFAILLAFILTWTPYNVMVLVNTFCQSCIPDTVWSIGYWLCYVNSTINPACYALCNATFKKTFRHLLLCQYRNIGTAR
# run description: [3H]NMS inhibition radioligand binding, hM4 in CHO-K1 cell membranes
# measurement setup: [3H]NMS, CHO-K1 cell membranes; mean ± S.E.M.

compound | comparison sign | pKi hM4
C[N+](C)(C)C[C@@H]1CO[C@](c2ccccc2)(C2CCCCC2)CO1.[I-] (relative stereo) [11b] | = | 7.23
C[N+](C)(C)C[C@@H]1CO[C@H](c2ccc(S(=O)(=O)c3ccccc3)cc2)CO1.[I-] (relative stereo) [17a] | < | 5
C[N+](C)(C)C[C@@H]1CO[C@H](c2ccc([S+]([O-])c3ccccc3)cc2)CO1.[I-] (relative stereo) [16a] | < | 5
C[N+](C)(C)C[C@@H]1COC[C@](c2ccccc2)(C2CCCCC2)O1.[I-] (relative stereo) [3b] | = | 9.03
C[N+](C)(C)C[C@@H]1COC[C@H](c2ccc(Sc3ccccc3)cc2)O1.[I-] (relative stereo) [6a] | = | 5.43
C[N+](C)(C)C[C@@H]1COC[C@H](c2ccc(S(=O)(=O)c3ccccc3)cc2)O1.[I-] (relative stereo) [8a] | < | 5
C[N+](C)(C)C[C@H]1COC[C@@](c2ccccc2)(C2CCCCC2)O1.[I-] [(2S,6S)-(−)-3b] | = | 9.17
C[N+](C)(C)C[C@@H]1CO[C@H](c2ccc(-c3ccccc3)cc2)CO1.[I-] (relative stereo) [13a] | < | 5
C[N+](C)(C)C[C@@H]1CO[C@@H](C(c2ccccc2)c2ccccc2)CO1.[I-] (relative stereo) [12b] | = | 5.52
C[N+](C)(C)C[C@@H]1COC[C@@H](c2ccc([S+]([O-])c3ccccc3)cc2)O1.[I-] (relative stereo) [7b] | = | 5.42
C[N+](C)(C)C[C@@H]1CO[C@@H](c2ccc(S(=O)(=O)c3ccccc3)cc2)CO1.[I-] (relative stereo) [17b] | < | 5
CN(C)C[C@@H]1COC[C@](c2ccccc2)(C2CCCCC2)O1 (relative stereo) [33b] | = | 8.62
C[N+](C)(C)C[C@@H]1CO[C@H](c2ccc(Sc3ccccc3)cc2)CO1.[I-] (relative stereo) [15a] | = | 5.70
C[N+](C)(C)C[C@@H]1COC[C@H](c2ccc([S+]([O-])c3ccccc3)cc2)O1.[I-] (relative stereo) [7a] | < | 5
C[N+](C)(C)C[C@@H]1CO[C@@H](c2ccc(Cc3ccccc3)cc2)CO1.[I-] (relative stereo) [14b] | < | 5
